Sourced from paper PMC5656653

Documented tissue uptake dose at 1 h across a set of compounds
assay: Biodistribution experiments in normal mice after i.v. injection; assay type: in vivo; conditions: male, ddY, mouse, in vivo, iv, total radioactivity, Biodistribution of radioactivity, Muscle
Where a SMILES comes first, the peptide text is derived from it. [ ]: non-standard residue; d: D form. The star is where a group is joined. DOTA = O=C(O)CN1CCN(CC(=O)O)CCN(CC(=O)*)CCN(CC(=O)O)CC1
Your answer is read as %ID, so omit the unit and give the number.

# lookup: tissue uptake dose at 1 h of O=C(O)C[C@@H](NC(=O)[C@@H](CC(=O)O)NC(=O)CN1CCN(CC(=O)O)CCN(CC(=O)O)CCN(CC(=O)O)CC1)C(=O)O [^67Ga-DOTA-(D-Asp)2, metal not drawn] ({DOTA}-[dD]-[dD]-OH) 0.11

# lookup: tissue uptake dose at 1 h of O=C(O)CC[C@@H](NC(=O)[C@@H](CCC(=O)O)NC(=O)[C@@H](CCC(=O)O)NC(=O)[C@@H](CCC(=O)O)NC(=O)[C@@H](CCC(=O)O)NC(=O)[C@@H](CCC(=O)O)NC(=O)[C@@H](CCC(=O)O)NC(=O)[C@@H](CCC(=O)O)NC(=O)[C@@H](CCC(=O)O)NC(=O)[C@@H](CCC(=O)O)NC(=O)[C@@H](CCC(=O)O)NC(=O)[C@@H](CCC(=O)O)NC(=O)[C@@H](CCC(=O)O)NC(=O)[C@@H](CCC(=O)O)NC(=O)CN1CCN(CC(=O)O)CCN(CC(=O)O)CCN(CC(=O)O)CC1)C(=O)O [^67Ga-DOTA-(D-Glu)14, metal not drawn] 0.19

# lookup: tissue uptake dose at 1 h of O=C(O)CC[C@H](NC(=O)[C@H](CCC(=O)O)NC(=O)[C@H](CCC(=O)O)NC(=O)[C@H](CCC(=O)O)NC(=O)[C@H](CCC(=O)O)NC(=O)[C@H](CCC(=O)O)NC(=O)[C@H](CCC(=O)O)NC(=O)[C@H](CCC(=O)O)NC(=O)[C@H](CCC(=O)O)NC(=O)[C@H](CCC(=O)O)NC(=O)[C@H](CCC(=O)O)NC(=O)[C@H](CCC(=O)O)NC(=O)[C@H](CCC(=O)O)NC(=O)[C@H](CCC(=O)O)NC(=O)CN1CCN(CC(=O)O)CCN(CC(=O)O)CCN(CC(=O)O)CC1)C(=O)O [^67Ga-DOTA-(L-Glu)14, metal not drawn] 0.1

# lookup: tissue uptake dose at 1 h of O=C(O)C[C@@H](NC(=O)[C@@H](CC(=O)O)NC(=O)[C@@H](CC(=O)O)NC(=O)[C@@H](CC(=O)O)NC(=O)[C@@H](CC(=O)O)NC(=O)[C@@H](CC(=O)O)NC(=O)[C@@H](CC(=O)O)NC(=O)[C@@H](CC(=O)O)NC(=O)CN1CCN(CC(=O)O)CCN(CC(=O)O)CCN(CC(=O)O)CC1)C(=O)O [^67Ga-DOTA-(D-Asp)8, metal not drawn] ({DOTA}-[dD][dD][dD][dD][dD][dD][dD][dD]-OH) 0.15

----------
experiment: Biodistribution experiments in normal mice after i.v. injection; type: in vivo; conditions: male, ddY, mouse, in vivo, iv, total radioactivity, mice, i.v., 10 min after injection, mean (SD), footnote b; read-out: Biodistribution of radioactivity, Stomach
Where a SMILES comes first, the peptide text is derived from it. [ ]: non-standard residue; d: D form. The star is where a group is joined. DOTA = O=C(O)CN1CCN(CC(=O)O)CCN(CC(=O)*)CCN(CC(=O)O)CC1
reported-property: tissue uptake dose at 10 min (%ID)
Your answer is read as %ID, so omit the unit and give the number.

# lookup: tissue uptake dose at 10 min of O=C(O)C[C@@H](NC(=O)[C@@H](CC(=O)O)NC(=O)[C@@H](CC(=O)O)NC(=O)[C@@H](CC(=O)O)NC(=O)[C@@H](CC(=O)O)NC(=O)[C@@H](CC(=O)O)NC(=O)[C@@H](CC(=O)O)NC(=O)[C@@H](CC(=O)O)NC(=O)[C@@H](CC(=O)O)NC(=O)[C@@H](CC(=O)O)NC(=O)[C@@H](CC(=O)O)NC(=O)CN1CCN(CC(=O)O)CCN(CC(=O)O)CCN(CC(=O)O)CC1)C(=O)O [^67Ga-DOTA-(D-Asp)11, metal not drawn] ({DOTA}-[dD][dD][dD][dD][dD][dD][dD][dD][dD][dD][dD]-OH) 0.18
